experiment: Oral bioavailability in Sprague-Dawley rat at 1 mg/kg, po; type: ADME, organism-based; conditions: in vivo
Give bioavailability for every item shown.

| RECORD SMILES | bioavailability |
| --- | --- |
| O=C(NCC1(O)CCC(F)(F)CC1)c1cc(-c2ncc(F)cn2)ccc1Cl | 84% |

Switching to the query record.
Query block: Fill in the blank: the reported bioavailability of O=C(NCC1(O)CCCCCC1)c1cc(-c2ncc(F)cn2)ccc1Cl is ____.
Result block: 35%

----------
test: Ratio of drug level in brain to plasma in iv dosed Sprague-Dawley rat; assay type: ADME, organism-based; conditions: brain and plasma
VALUE KIND: Kp

| RECORD SMILES | VALUE KIND | TEST VALUE |
| --- | --- | --- |
| O=C(NCC1(O)CCCCCC1)c1cc(-c2ncc(F)cn2)ccc1Cl | Kp | 0.7 |

Query block: Fill in the blank: the reported Kp of O=C(NCC1(O)CCC(F)(F)CC1)c1cc(-c2ncc(F)cn2)ccc1Cl is ____.
Result block: 1.3
